target-desc: T1, human Nectin-4 (human, UniProt Q96NY8 32-349)
T1 construct: a Gly32-Ser349 FLAG construct is described only under the SPR assay; also called PVRL4
T1 sequence (looked up): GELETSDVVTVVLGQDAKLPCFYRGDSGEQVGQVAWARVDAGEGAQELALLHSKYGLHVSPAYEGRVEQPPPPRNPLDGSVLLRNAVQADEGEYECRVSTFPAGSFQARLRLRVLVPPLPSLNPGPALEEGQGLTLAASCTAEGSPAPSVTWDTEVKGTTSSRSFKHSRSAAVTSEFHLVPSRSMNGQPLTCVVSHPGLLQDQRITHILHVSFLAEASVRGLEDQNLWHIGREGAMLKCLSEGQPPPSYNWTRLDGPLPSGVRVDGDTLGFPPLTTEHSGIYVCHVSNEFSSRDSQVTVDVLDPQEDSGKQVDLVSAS
procedure-details: FP direct binding
*1 amine or outer side, *2 acyl side, *3 side chain or, on linkers, in order; H or OH if unused. Bridges are numbered along the chain shown (N, C = ends). Where no end group is shown, it is not given here. [ ]: non-standard residue; d: D form. TATA = O=C(CC[*:1])N1CN(C(=O)CC[*:2])CN(C(=O)CC[*:3])C1; K(Fl) = lysine bearing fluorescein; Sar = CNCC(=O)O
observation-type: Kd

// query Kd value for entry ACPFGCHTDWSWPIWCA[Sar][Sar][Sar][Sar][Sar][Sar]-{K(Fl)} (linker 2-6-16 via TATA, also called fluorescent peptide; tracer) [ACPFGCHTDWSWPIWCA-Sar6-K(Fl) (SEQ ID NO: 217)] 5 nM

These entries and their values trace back to patent US20210269480A1.
